Test: activity coefficient (dimensionless); of the first substance listed, at infinite dilution; xn = mol fraction of the nth substance listed
Conditions: 338.15 K; 101 kPa; Liquid; Chromatography; x1 = 0
measurement.kind: activity coefficient

[
  {
    "molecule": "C#CCCCCCC [1-octyne] + C[N+]1(CCCO)CCOCC1.O=S(=O)([N-]S(=O)(=O)C(F)(F)F)C(F)(F)F",
    "measurement": 29.6
  },
  {
    "molecule": "C1COCCO1 [1,4-dioxane] + C[N+]1(CCCO)CCOCC1.O=S(=O)([N-]S(=O)(=O)C(F)(F)F)C(F)(F)F",
    "measurement": 0.709
  },
  {
    "molecule": "CCOC(C)(C)C [2-ethoxy-2-methylpropane] + C[N+]1(CCCO)CCOCC1.O=S(=O)([N-]S(=O)(=O)C(F)(F)F)C(F)(F)F",
    "measurement": 15.6
  },
  {
    "molecule": "CCC(C)(C)OC [2-methoxy-2-methylbutane] + C[N+]1(CCCO)CCOCC1.O=S(=O)([N-]S(=O)(=O)C(F)(F)F)C(F)(F)F",
    "measurement": 8.8
  },
  {
    "molecule": "CCC(=O)OC [methyl propanoate] + C[N+]1(CCCO)CCOCC1.O=S(=O)([N-]S(=O)(=O)C(F)(F)F)C(F)(F)F",
    "measurement": 1.57
  },
  {
    "molecule": "CCC[N+](=O)[O-] [1-nitropropane] + C[N+]1(CCCO)CCOCC1.O=S(=O)([N-]S(=O)(=O)C(F)(F)F)C(F)(F)F",
    "measurement": 1.28
  },
  {
    "molecule": "c1ccccc1 [benzene] + C[N+]1(CCCO)CCOCC1.O=S(=O)([N-]S(=O)(=O)C(F)(F)F)C(F)(F)F",
    "measurement": 2.58
  }
]

----------
Experiment: activity coefficient (dimensionless); of the first substance listed, at infinite dilution; xn = mol fraction of the nth substance listed
Conditions: 348.15 K; 101 kPa; Liquid; Chromatography; x1 = 0

[
  {
    "molecule": "CCCCCCCCC [nonane] + C[N+]1(CCCO)CCOCC1.O=S(=O)([N-]S(=O)(=O)C(F)(F)F)C(F)(F)F",
    "activity coefficient": 287
  },
  {
    "molecule": "CCOC(C)(C)C [2-ethoxy-2-methylpropane] + C[N+]1(CCCO)CCOCC1.O=S(=O)([N-]S(=O)(=O)C(F)(F)F)C(F)(F)F",
    "activity coefficient": 15.2
  },
  {
    "molecule": "C=CCCCCCC [oct-1-ene] + C[N+]1(CCCO)CCOCC1.O=S(=O)([N-]S(=O)(=O)C(F)(F)F)C(F)(F)F",
    "activity coefficient": 94.6
  },
  {
    "molecule": "Cc1cccc(C)c1 [1,3-dimethylbenzene] + C[N+]1(CCCO)CCOCC1.O=S(=O)([N-]S(=O)(=O)C(F)(F)F)C(F)(F)F",
    "activity coefficient": 6.73
  },
  {
    "molecule": "C#CCCCCCC [1-octyne] + C[N+]1(CCCO)CCOCC1.O=S(=O)([N-]S(=O)(=O)C(F)(F)F)C(F)(F)F",
    "activity coefficient": 28
  },
  {
    "molecule": "C1CCCCCC1 [cycloheptane] + C[N+]1(CCCO)CCOCC1.O=S(=O)([N-]S(=O)(=O)C(F)(F)F)C(F)(F)F",
    "activity coefficient": 54.5
  },
  {
    "molecule": "C#CCCCC [1-hexyne] + C[N+]1(CCCO)CCOCC1.O=S(=O)([N-]S(=O)(=O)C(F)(F)F)C(F)(F)F",
    "activity coefficient": 11.2
  }
]

----------
Assay: activity coefficient (dimensionless); of the first substance listed, at infinite dilution; xn = mol fraction of the nth substance listed
Settings: 338.15 K; 101 kPa; Liquid; Chromatography; x1 = 0
Recorded activity coefficient by entry
measurement.kind: activity coefficient

[
  {
    "molecule": "CCCCCCC [heptane] + C[N+]1(CCCO)CCOCC1.O=S(=O)([N-]S(=O)(=O)C(F)(F)F)C(F)(F)F",
    "measurement": 162
  },
  {
    "molecule": "CCCCO [butan-1-ol] + C[N+]1(CCCO)CCOCC1.O=S(=O)([N-]S(=O)(=O)C(F)(F)F)C(F)(F)F",
    "measurement": 2.96
  },
  {
    "molecule": "CCCO [propan-1-ol] + C[N+]1(CCCO)CCOCC1.O=S(=O)([N-]S(=O)(=O)C(F)(F)F)C(F)(F)F",
    "measurement": 1.96
  },
  {
    "molecule": "C=CCCCCCC [oct-1-ene] + C[N+]1(CCCO)CCOCC1.O=S(=O)([N-]S(=O)(=O)C(F)(F)F)C(F)(F)F",
    "measurement": 106
  },
  {
    "molecule": "CCCC(=O)OC [methyl butanoate] + C[N+]1(CCCO)CCOCC1.O=S(=O)([N-]S(=O)(=O)C(F)(F)F)C(F)(F)F",
    "measurement": 2.56
  },
  {
    "molecule": "CCC(C)O (centres undefined) [butan-2-ol] + C[N+]1(CCCO)CCOCC1.O=S(=O)([N-]S(=O)(=O)C(F)(F)F)C(F)(F)F",
    "measurement": 2.46
  },
  {
    "molecule": "CCCCCCCCCC [decane] + C[N+]1(CCCO)CCOCC1.O=S(=O)([N-]S(=O)(=O)C(F)(F)F)C(F)(F)F",
    "measurement": 479
  },
  {
    "molecule": "CCC(=O)CC [pentan-3-one] + C[N+]1(CCCO)CCOCC1.O=S(=O)([N-]S(=O)(=O)C(F)(F)F)C(F)(F)F",
    "measurement": 1.4
  },
  {
    "molecule": "C1CCCCC1 [cyclohexane] + C[N+]1(CCCO)CCOCC1.O=S(=O)([N-]S(=O)(=O)C(F)(F)F)C(F)(F)F",
    "measurement": 48.3
  },
  {
    "molecule": "Cc1ccccc1C [1,2-dimethylbenzene] + C[N+]1(CCCO)CCOCC1.O=S(=O)([N-]S(=O)(=O)C(F)(F)F)C(F)(F)F",
    "measurement": 5.78
  },
  {
    "molecule": "C1=CCCCC1 [cyclohexene] + C[N+]1(CCCO)CCOCC1.O=S(=O)([N-]S(=O)(=O)C(F)(F)F)C(F)(F)F",
    "measurement": 20.2
  },
  {
    "molecule": "CC(C)OC(C)C [diisopropyl ether] + C[N+]1(CCCO)CCOCC1.O=S(=O)([N-]S(=O)(=O)C(F)(F)F)C(F)(F)F",
    "measurement": 16.9
  },
  {
    "molecule": "CCOCC [diethyl ether] + C[N+]1(CCCO)CCOCC1.O=S(=O)([N-]S(=O)(=O)C(F)(F)F)C(F)(F)F",
    "measurement": 5.05
  },
  {
    "molecule": "CC(C)(C)O [2-methylpropan-2-ol] + C[N+]1(CCCO)CCOCC1.O=S(=O)([N-]S(=O)(=O)C(F)(F)F)C(F)(F)F",
    "measurement": 2.03
  }
]

----------
Assay: activity coefficient (dimensionless); of the first substance listed, at infinite dilution; xn = mol fraction of the nth substance listed
Conditions: 318.15 K; 101 kPa; Liquid; Chromatography; x1 = 0

[
  {
    "compound": "C=CCCCCCC [oct-1-ene] + C[N+]1(CCCO)CCOCC1.O=S(=O)([N-]S(=O)(=O)C(F)(F)F)C(F)(F)F",
    "activity coefficient": 133
  },
  {
    "compound": "CCCCCC [hexane] + C[N+]1(CCCO)CCOCC1.O=S(=O)([N-]S(=O)(=O)C(F)(F)F)C(F)(F)F",
    "activity coefficient": 154
  },
  {
    "compound": "CC#N [acetonitrile] + C[N+]1(CCCO)CCOCC1.O=S(=O)([N-]S(=O)(=O)C(F)(F)F)C(F)(F)F",
    "activity coefficient": 0.479
  },
  {
    "compound": "C1CCCCCC1 [cycloheptane] + C[N+]1(CCCO)CCOCC1.O=S(=O)([N-]S(=O)(=O)C(F)(F)F)C(F)(F)F",
    "activity coefficient": 82.8
  }
]

----------
Recorded activity coefficient by entry
Assay: activity coefficient (dimensionless); of the first substance listed, at infinite dilution; xn = mol fraction of the nth substance listed
Conditions: 318.15 K; 101 kPa; Liquid; Chromatography; x1 = 0

[
  {
    "compound": "CCC(C)CC [3-methylpentane] + C[N+]1(CCCO)CCOCC1.O=S(=O)([N-]S(=O)(=O)C(F)(F)F)C(F)(F)F",
    "activity coefficient": 152
  },
  {
    "compound": "CCC[N+](=O)[O-] [1-nitropropane] + C[N+]1(CCCO)CCOCC1.O=S(=O)([N-]S(=O)(=O)C(F)(F)F)C(F)(F)F",
    "activity coefficient": 1.24
  },
  {
    "compound": "CO [methanol] + C[N+]1(CCCO)CCOCC1.O=S(=O)([N-]S(=O)(=O)C(F)(F)F)C(F)(F)F",
    "activity coefficient": 0.945
  },
  {
    "compound": "Cc1ccc(C)cc1 [1,4-dimethylbenzene] + C[N+]1(CCCO)CCOCC1.O=S(=O)([N-]S(=O)(=O)C(F)(F)F)C(F)(F)F",
    "activity coefficient": 6.65
  },
  {
    "compound": "Cc1ccccc1 [toluene] + C[N+]1(CCCO)CCOCC1.O=S(=O)([N-]S(=O)(=O)C(F)(F)F)C(F)(F)F",
    "activity coefficient": 4.03
  },
  {
    "compound": "CCCCCCCCC [nonane] + C[N+]1(CCCO)CCOCC1.O=S(=O)([N-]S(=O)(=O)C(F)(F)F)C(F)(F)F",
    "activity coefficient": 445
  },
  {
    "compound": "CCCC(=O)OC [methyl butanoate] + C[N+]1(CCCO)CCOCC1.O=S(=O)([N-]S(=O)(=O)C(F)(F)F)C(F)(F)F",
    "activity coefficient": 2.41
  }
]
